biological target: Jun bZIP K268A;Fos bZIP K148A (human;human, UniProt P05412;P01100 252-315;137-200, K268A|K148A); test: ITC
Sequence (P05412 252-315 K268A, chain 1 of 2): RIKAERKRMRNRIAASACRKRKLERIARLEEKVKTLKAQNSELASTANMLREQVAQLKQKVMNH
Sequence (P01100 137-200 K148A, chain 2 of 2): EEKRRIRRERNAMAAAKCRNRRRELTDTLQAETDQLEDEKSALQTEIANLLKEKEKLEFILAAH
test-readout: Kd (nM)
Numbers only here, please. The scale is nM.

Which Kd reading was recorded for the binder TRE duplex 15-mer (dsDNA) DNA 1: CGCGTGACTCACCCC DNA 2: GGGGTGAGTCACGCG ?
460

Where do these numbers come from? They come from paper PMC3154423.
